These entries and their values trace back to the supplement of paper PMC9428881.

assay: background-corrected fluorescence of 3'-dye-labeled ssDNA relative to brightest sequence (3'-GCGCG) (fraction); higher = brighter dye fluorescence (less quenching); conditions: dye: Cy3 (3' terminal)
attribute.measured: background-corrected fluorescence
Just the number, please, no unit after it.

TTTTTTCATCATGCGCAGCATTTTTTTTTTTTTTTGGATT [TTAGG]
0.584
TTTTTTGATGATGATGCTGCTTTTTTTTTTTTTTTCCCAA [AACCC]
0.485
TTTTTGCATGCGCAGCATGATTTTTTTTTTTTTTTTATTC [CTTAT]
0.394
TTTTTTGCTCATGCTCATCATTTTTTTTTTTTTTTAGAGG [GGAGA]
0.645
TTTTTTGCTGCGCATCAGCATTTTTTTTTTTTTTTAATGT [TGTAA]
0.616

Challenge: Entry under review: TTTTTGCATGAGCAGCATGATTTTTTTTTTTTTTTTCTTC [CTTCT] . Reported background-corrected fluorescence?
Response given: 0.382

Challenge: Quick check: background-corrected fluorescence of TTTTTTCATGAGCAGCATGCTTTTTTTTTTTTTTTGCTTA [ATTCG] ?
Response given: 0.534

Challenge: Item under review: TTTTTTCAGCAGCATGCGCATTTTTTTTTTTTTTTGTTAT [TATTG] . Reported background-corrected fluorescence?
Response given: 0.546

Challenge: Form field: reported background-corrected fluorescence of TTTTTGCATGAGCATGATCATTTTTTTTTTTTTTTTCTCG [GCTCT]
Response given: 0.506

Challenge: Can you share its background-corrected fluorescence? I mean this sequence: TTTTTTGCTGATGATGCTGATTTTTTTTTTTTTTTACCAC [CACCA]
Response given: 0.405

Challenge: What background-corrected fluorescence value was documented for this sequence, TTTTTTGATGCGCAGCATCATTTTTTTTTTTTTTTCATTG [GTTAC] ?
Response given: 0.561

Challenge: Dear colleague, I am looking for the recorded background-corrected fluorescence of the following sequence: TTTTTGCAGCAGCATCATGATTTTTTTTTTTTTTTTTTGC [CGTTT]
Response given: 0.495

Challenge: Which background-corrected fluorescence value is on record for TTTTTTGCTGATCATGATCATTTTTTTTTTTTTTTACGCG [GCGCA] ?
Response given: 0.973

Challenge: Recorded background-corrected fluorescence for TTTTTGCAGCATGAGCATCATTTTTTTTTTTTTTTTTCTG [GTCTT] , please?
Response given: 0.472

Challenge: Fill in: background-corrected fluorescence of TTTTTTGCTGCTGCTGCTGCTTTTTTTTTTTTTTTAAAAA is ___
Response given: 0.593

Challenge: # get_value(readout='background-corrected fluorescence', item= TTTTTTGCTGCTGCGCAGCATTTTTTTTTTTTTTTAAATT )
Response given: 0.543

Challenge: background-corrected fluorescence lookup needed for TTTTTTCATGAGCATGATGCTTTTTTTTTTTTTTTGCTCA [ACTCG] , thanks.
Response given: 0.485

Challenge: Look at this sequence and give its reported background-corrected fluorescence. TTTTTTGATGCTCATGCTCATTTTTTTTTTTTTTTCAGAG [GAGAC]
Response given: 0.595

Challenge: Reported background-corrected fluorescence for TTTTTGCATGCTGAGCATGCTTTTTTTTTTTTTTTTACTA [ATCAT] : what is it?
Response given: 0.502

Challenge: Data request, read-out background-corrected fluorescence, for TTTTTGCATCATGAGCATGATTTTTTTTTTTTTTTTGCTC [CTCGT]
Response given: 0.374

Challenge: # background-corrected fluorescence lookup, item TTTTTTGCTGCTGCTCATCATTTTTTTTTTTTTTTAAAGG [GGAAA]
Response given: 0.646

====

assay: background-corrected fluorescence of 3'-dye-labeled ssDNA relative to brightest sequence (3'-GCGCG) (fraction); higher = brighter dye fluorescence (less quenching); details: dye: Cy3 (3' terminal)
Each entry gets FALSE if its background-corrected fluorescence stays under 0.5, and TRUE if its background-corrected fluorescence is 0.5 or above.

Below are worked cases with known answers.
TTTTTTGATCATGATCATCATTTTTTTTTTTTTTTCGCGG [GGCGC]
TRUE
TTTTTTGCGCATGATGCTGATTTTTTTTTTTTTTTATCAC [CACTA]
FALSE
TTTTTTCATCATGCGCATCATTTTTTTTTTTTTTTGGATG [GTAGG]
TRUE
TTTTTGCATGCTCATGCTGATTTTTTTTTTTTTTTTAGAC [CAGAT]
FALSE
TTTTTTGATGAGCATGCTGCTTTTTTTTTTTTTTTCCTAA [AATCC]
TRUE
TTTTTTCATCAGCATGCTGCTTTTTTTTTTTTTTTGGTAA [AATGG]
TRUE
TTTTTTGATGATGCGCAGCATTTTTTTTTTTTTTTCCATT [TTACC]
TRUE
TTTTTTGATGCTGCTGATGATTTTTTTTTTTTTTTCAACC [CCAAC]
FALSE
TTTTTTGCTCATCATGCTGATTTTTTTTTTTTTTTAGGAC [CAGGA]
FALSE
TTTTTTCATCAGCATGCTCATTTTTTTTTTTTTTTGGTAG [GATGG]
TRUE

Challenge: Please check the record TTTTTTCAGCAGCAGCATGCTTTTTTTTTTTTTTTGTTTA [ATTTG] and state if its background-corrected fluorescence is at or above 0.5.
Response given: TRUE

====

Catalogue of sequences with associated background-corrected fluorescence
test: background-corrected fluorescence of 3'-dye-labeled ssDNA relative to brightest sequence (3'-GCGCG) (fraction); higher = brighter dye fluorescence (less quenching); details: dye: Cy5 (3' terminal)
Please respond with just the number, no unit label.

Challenge: Query: background-corrected fluorescence; subject: TTTTTTGATGCTGATGATGATTTTTTTTTTTTTTTCACCC [CCCAC]
Response given: 0.271

Challenge: Consider the sequence TTTTTTGATCAGCAGCATGCTTTTTTTTTTTTTTTCGTTA [ATTGC] and give its measured background-corrected fluorescence.
Response given: 0.398

Challenge: So what does the record say about background-corrected fluorescence for TTTTTTGAGCAGCATGATGCTTTTTTTTTTTTTTTCTTCA [ACTTC] ?
Response given: 0.382

====

experiment: background-corrected fluorescence of 3'-dye-labeled ssDNA relative to brightest sequence (3'-GCGCG) (fraction); higher = brighter dye fluorescence (less quenching); details: dye: Cy3 (3' terminal)
attribute.measured: background-corrected fluorescence
Output: the number by itself.

Sample answers from the record:
TTTTTTGCGCAGCATGATGCTTTTTTTTTTTTTTTATTCA [ACTTA]
0.484
TTTTTTGCTCATGAGCAGCATTTTTTTTTTTTTTTAGCTT [TTCGA]
0.551
TTTTTGCAGCATGATGAGCATTTTTTTTTTTTTTTTTCCT [TCCTT]
0.444

Challenge: Endpoint output: background-corrected fluorescence of TTTTTTGATCATGCTCAGCATTTTTTTTTTTTTTTCGAGT [TGAGC] . Value?
Response given: 0.684

Challenge: # background-corrected fluorescence lookup, item TTTTTTCAGCATGATGATGCTTTTTTTTTTTTTTTGTCCA [ACCTG]
Response given: 0.484

Challenge: What value of background-corrected fluorescence has been reported for the following sequence? TTTTTTGCTCATCAGCATGCTTTTTTTTTTTTTTTAGGTA [ATGGA]
Response given: 0.564

Challenge: What value of measured background-corrected fluorescence is listed for TTTTTTGATCATGCTGCTCATTTTTTTTTTTTTTTCGAAG [GAAGC] ?
Response given: 0.609

Challenge: Given TTTTTGCATGATGCTGCTGATTTTTTTTTTTTTTTTCAAC [CAACT] , state its recorded background-corrected fluorescence.
Response given: 0.429

Challenge: Return reported background-corrected fluorescence; argument: TTTTTTCAGCATGATGAGCATTTTTTTTTTTTTTTGTCCT [TCCTG]
Response given: 0.464

Challenge: Need background-corrected fluorescence of TTTTTTGATGATGCTGCGCATTTTTTTTTTTTTTTCCAAT [TAACC] , thanks.
Response given: 0.527

Challenge: Look up background-corrected fluorescence for this sequence: TTTTTGCATGCTGAGCATCATTTTTTTTTTTTTTTTACTG [GTCAT]
Response given: 0.499

Challenge: Any idea what background-corrected fluorescence was measured for TTTTTTGATGCTGATCATGCTTTTTTTTTTTTTTTCACGA [AGCAC] ?
Response given: 0.594

====

experiment: background-corrected fluorescence of 3'-dye-labeled ssDNA relative to brightest sequence (3'-GCGCG) (fraction); higher = brighter dye fluorescence (less quenching); settings: dye: Cy3 (3' terminal)
Label 0 if background-corrected fluorescence falls below 0.5; label 1 in every other case.

TTTTTTGATGCTGCTCATGCTTTTTTTTTTTTTTTCAAGA [AGAAC]
1
TTTTTGCATGCTGATCAGCATTTTTTTTTTTTTTTTACGT
1
TTTTTTGAGCATGCTGCTGCTTTTTTTTTTTTTTTCTAAA [AAATC]
1
TTTTTTGCTGCGCATGCGCATTTTTTTTTTTTTTTAATAT [TATAA]
1
TTTTTTGATGCGCATGATCATTTTTTTTTTTTTTTCATCG [GCTAC]
1
TTTTTGCATGATGATGATGCTTTTTTTTTTTTTTTTCCCA [ACCCT]
0
TTTTTGCATGCTGATGATCATTTTTTTTTTTTTTTTACCG [GCCAT]
1
TTTTTTGATCATGCGCATGATTTTTTTTTTTTTTTCGATC [CTAGC]
0
TTTTTGCATGATGATGCTGATTTTTTTTTTTTTTTTCCAC [CACCT]
0
TTTTTTGCTGCGCAGCATGCTTTTTTTTTTTTTTTAATTA [ATTAA]
1

Challenge: hey, is background-corrected fluorescence for this one >= 0.5? TTTTTTCAGCATGAGCATGCTTTTTTTTTTTTTTTGTCTA [ATCTG]
Response given: 1

Challenge: Exam item: decide whether the reported background-corrected fluorescence for TTTTTTCATCATGATCAGCATTTTTTTTTTTTTTTGGCGT [TGCGG] is at least 0.5.
Response given: 1

Challenge: Tell me whether background-corrected fluorescence is at least 0.5 here: TTTTTTGATGATCAGCATCATTTTTTTTTTTTTTTCCGTG [GTGCC]
Response given: 1

Challenge: Has TTTTTTGATGAGCATGATGATTTTTTTTTTTTTTTCCTCC a recorded background-corrected fluorescence greater than or equal to 0.5?
Response given: 0

Challenge: # check: background-corrected fluorescence of TTTTTTGAGCATGCTCAGCATTTTTTTTTTTTTTTCTAGT [TGATC] is greater than or equal to 0.5
Response given: 1

Challenge: Decide: is the reported value of background-corrected fluorescence for TTTTTTGCTGATCAGCATCATTTTTTTTTTTTTTTACGTG [GTGCA] equal to or greater than 0.5?
Response given: 1

Challenge: Identify whether the reported background-corrected fluorescence of the following sequence is 0.5 or greater: TTTTTTGATGATGATCATCATTTTTTTTTTTTTTTCCCGG [GGCCC]
Response given: 1

Challenge: Confirm if background-corrected fluorescence reported for the sequence TTTTTTGAGCATCATGATCATTTTTTTTTTTTTTTCTGCG [GCGTC] is 0.5 or above.
Response given: 1

Challenge: Determine whether this sequence has background-corrected fluorescence no lower than 0.5: TTTTTTGCTCATGCTCATGCTTTTTTTTTTTTTTTAGAGA
Response given: 1
